molecular target: Fes (UniProt P07332); test: phosphorylation enrichment, bacterial display (enrichment ratio); higher = better substrate or ligand; peptides without Tyr show the background;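 further: 11-residue human phosphosite peptides and single-mutation variants displayed on the E. coli surface, counted by deep sequencing, each peptide's frequency after selection divided by its frequency in the unselected input library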;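 further: frequency after pTyr selection over input frequency; kinase dosed for 20-30% of maximal phosphorylation in three min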
Sequence (P07332 whole entry, looked up): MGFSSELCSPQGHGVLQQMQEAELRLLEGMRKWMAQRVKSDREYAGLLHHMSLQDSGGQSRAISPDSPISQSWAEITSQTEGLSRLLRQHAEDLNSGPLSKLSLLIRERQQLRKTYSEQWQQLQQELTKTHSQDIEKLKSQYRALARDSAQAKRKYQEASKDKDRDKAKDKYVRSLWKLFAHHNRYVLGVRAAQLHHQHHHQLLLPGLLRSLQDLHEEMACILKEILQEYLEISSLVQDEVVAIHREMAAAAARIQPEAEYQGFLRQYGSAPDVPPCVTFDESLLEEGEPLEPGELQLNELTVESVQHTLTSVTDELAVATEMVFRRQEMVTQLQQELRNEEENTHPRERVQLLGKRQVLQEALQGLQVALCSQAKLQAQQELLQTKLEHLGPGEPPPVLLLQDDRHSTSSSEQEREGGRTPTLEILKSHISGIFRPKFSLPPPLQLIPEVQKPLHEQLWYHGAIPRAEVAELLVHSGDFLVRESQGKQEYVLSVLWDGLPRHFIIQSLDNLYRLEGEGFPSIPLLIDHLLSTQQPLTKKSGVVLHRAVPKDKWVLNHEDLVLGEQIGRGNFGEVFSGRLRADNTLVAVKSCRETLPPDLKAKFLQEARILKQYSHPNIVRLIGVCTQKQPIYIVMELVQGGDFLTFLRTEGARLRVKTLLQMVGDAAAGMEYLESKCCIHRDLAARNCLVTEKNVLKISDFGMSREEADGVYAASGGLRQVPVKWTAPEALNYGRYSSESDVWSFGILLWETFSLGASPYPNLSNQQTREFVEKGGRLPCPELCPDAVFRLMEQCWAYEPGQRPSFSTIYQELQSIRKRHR
Readout label: phosphorylation enrichment
Just the number, please.

Sample answers from the record:
QSKGIYYVQLE [MGAT4B_Y262]: 1.42
LVVFEYMRHGD [NTRK1_Y591_M587V]: 1.03

# sequence LHSDHYSPSGR [TMPRSS12_Y23_Y19H] ; its phosphorylation enrichment = 0.585

# sequence AFLEDYFTSTK [SRC_Y522_E527K] ; its phosphorylation enrichment = 0.97

###

target: Jak2 (UniProt O60674); assay: phosphorylation enrichment, bacterial display (enrichment ratio); higher = better substrate or ligand; peptides without Tyr show the background
Sequence (O60674 whole entry, looked up): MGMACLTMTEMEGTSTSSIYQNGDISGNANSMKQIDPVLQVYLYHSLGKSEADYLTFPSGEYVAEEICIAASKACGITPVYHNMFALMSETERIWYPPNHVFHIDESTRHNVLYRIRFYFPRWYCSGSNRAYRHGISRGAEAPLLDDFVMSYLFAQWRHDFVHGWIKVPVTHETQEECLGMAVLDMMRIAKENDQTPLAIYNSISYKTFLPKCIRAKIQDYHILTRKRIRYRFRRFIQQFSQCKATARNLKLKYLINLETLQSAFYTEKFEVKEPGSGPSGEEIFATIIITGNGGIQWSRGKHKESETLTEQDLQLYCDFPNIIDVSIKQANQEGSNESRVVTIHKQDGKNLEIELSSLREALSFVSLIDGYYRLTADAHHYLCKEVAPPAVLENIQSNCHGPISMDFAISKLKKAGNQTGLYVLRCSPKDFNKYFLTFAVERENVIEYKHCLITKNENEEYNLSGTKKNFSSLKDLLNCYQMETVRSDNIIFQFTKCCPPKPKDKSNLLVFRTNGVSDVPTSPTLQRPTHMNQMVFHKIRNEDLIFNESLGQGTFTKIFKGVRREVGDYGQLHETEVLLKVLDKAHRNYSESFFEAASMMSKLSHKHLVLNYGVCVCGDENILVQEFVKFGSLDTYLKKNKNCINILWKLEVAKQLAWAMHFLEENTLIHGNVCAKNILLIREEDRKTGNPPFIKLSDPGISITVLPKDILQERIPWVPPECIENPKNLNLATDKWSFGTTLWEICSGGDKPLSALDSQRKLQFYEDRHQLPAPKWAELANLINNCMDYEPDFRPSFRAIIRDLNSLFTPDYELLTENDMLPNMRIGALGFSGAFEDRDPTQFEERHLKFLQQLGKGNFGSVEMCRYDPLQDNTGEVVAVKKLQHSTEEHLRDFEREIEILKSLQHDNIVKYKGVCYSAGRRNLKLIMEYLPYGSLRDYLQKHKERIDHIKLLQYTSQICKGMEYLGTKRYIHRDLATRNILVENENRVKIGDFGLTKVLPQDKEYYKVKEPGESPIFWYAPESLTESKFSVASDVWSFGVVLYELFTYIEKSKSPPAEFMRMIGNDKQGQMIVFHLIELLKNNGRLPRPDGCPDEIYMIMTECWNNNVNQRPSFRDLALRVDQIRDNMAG
Item-by-item account of phosphorylation enrichment
Just the number, please.

Sample answers from the record:
KSSDVYVSYDC [SORL1_Y136_Y141C]: 0.934
AGVDRYSLGTS [C5orf42_Y1451_P1446A]: 0.498
INMKEYCKKDF [NTN1_Y490_K489E_YF]: 0.937

# sequence SGSWSYNTSTE [SELE_Y24_A21S] ; its phosphorylation enrichment = 0.968

# sequence RASDFYSQQMA [GBP6_Y334_A331S_YF] ; its phosphorylation enrichment = 0.688

# sequence CTNIHYNFMCN [TP53_Y234_T231N_YF] ; its phosphorylation enrichment = 0.693

# sequence DRLASYPDKVR [KRT14_Y129_L130P] ; its phosphorylation enrichment = 0.508

# sequence FPRAWYRRSIA [KIAA1109_Y4272] ; its phosphorylation enrichment = 0.689

# sequence IGERTYGQVYK [CDK13_Y716_G714R] ; its phosphorylation enrichment = 0.516

# sequence HKGASYVFRLS [PTPRD_Y891] ; its phosphorylation enrichment = 1.26

# sequence LPPGEYVVVPS [CAPN1_Y494] ; its phosphorylation enrichment = 1.32

###

biological target: FGFR1 (UniProt P11362); test: phosphorylation enrichment, bacterial display (enrichment ratio); higher = better substrate or ligand; peptides without Tyr show the background
Sequence (P11362 whole entry, looked up): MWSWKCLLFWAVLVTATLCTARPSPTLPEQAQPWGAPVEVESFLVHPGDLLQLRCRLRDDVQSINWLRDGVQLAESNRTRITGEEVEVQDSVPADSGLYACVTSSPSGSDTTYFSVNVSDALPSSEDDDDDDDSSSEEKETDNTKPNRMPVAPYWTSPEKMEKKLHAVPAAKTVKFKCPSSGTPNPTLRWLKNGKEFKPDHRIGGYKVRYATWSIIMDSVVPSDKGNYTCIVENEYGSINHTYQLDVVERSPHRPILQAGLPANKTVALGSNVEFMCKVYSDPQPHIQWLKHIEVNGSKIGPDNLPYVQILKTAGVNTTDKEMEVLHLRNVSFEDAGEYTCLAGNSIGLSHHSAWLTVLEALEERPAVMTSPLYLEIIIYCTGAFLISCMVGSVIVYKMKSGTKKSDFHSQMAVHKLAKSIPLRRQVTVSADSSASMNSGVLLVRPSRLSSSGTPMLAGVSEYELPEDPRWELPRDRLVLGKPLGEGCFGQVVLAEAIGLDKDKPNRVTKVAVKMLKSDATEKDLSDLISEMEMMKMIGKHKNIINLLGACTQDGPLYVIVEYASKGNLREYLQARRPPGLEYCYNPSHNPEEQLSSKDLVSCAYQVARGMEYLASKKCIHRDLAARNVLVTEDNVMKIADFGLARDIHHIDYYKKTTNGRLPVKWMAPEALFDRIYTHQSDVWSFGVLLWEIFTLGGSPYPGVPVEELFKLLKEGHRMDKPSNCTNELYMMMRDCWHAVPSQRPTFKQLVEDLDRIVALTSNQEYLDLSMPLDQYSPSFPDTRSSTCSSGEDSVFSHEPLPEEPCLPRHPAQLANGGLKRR
Item-by-item account of phosphorylation enrichment
Just the number, please.

Sample answers from the record:
SYMVRYNQPRV [GRIN2D_Y736]: 0.561
LIDSSYLTRTA [GREB1L_Y1063]: 0.507

Record KKYPDYIQIAM [SGMS2_Y59] has FGFR1 (UniProt P11362) phosphorylation enrichment equal to 9.52

Record KRLDGYVLEGR [IGSF9_Y656] has FGFR1 (UniProt P11362) phosphorylation enrichment equal to 0.43

Record SIIKDSFHRGA [GATM_Y203_Y203S] has FGFR1 (UniProt P11362) phosphorylation enrichment equal to 0.379

Record QKMADYSNKLY [PDPR_Y104] has FGFR1 (UniProt P11362) phosphorylation enrichment equal to 0.436

Record DSKIRYLSADS [TTF1_Y476_E473K] has FGFR1 (UniProt P11362) phosphorylation enrichment equal to 0.457

###

test system: c-Abl (mouse); test: phosphorylation enrichment, bacterial display (enrichment ratio); higher = better substrate or ligand; peptides without Tyr show the background
Item-by-item account of phosphorylation enrichment
Just the number, please.

Sample answers from the record:
FQLPFYNMVPS [BMPR1A_Y458_YF]: 0.582
GHEEFYSTHPH [LRRK2_Y1402_R1398H]: 0.504
HLVSEYQQFQD [TUBB3_Y422_D417H_YF]: 0.559

# sequence DHCNQYEQQKM [CHD7_Y75_Y72C] ; its phosphorylation enrichment = 0.661

# sequence DRLAVYIDRVS [LMNA_Y45_R50S] ; its phosphorylation enrichment = 0.351

# sequence KVDKEYEVRVR [GHR_Y226] ; its phosphorylation enrichment = 0.579
